target: Integrase (Human immunodeficiency virus 1); assay: Inhibition of HIV-1 integrase enzyme at 3`- processing stage of DNA integration
Sequence (Q7ZJM1 whole entry): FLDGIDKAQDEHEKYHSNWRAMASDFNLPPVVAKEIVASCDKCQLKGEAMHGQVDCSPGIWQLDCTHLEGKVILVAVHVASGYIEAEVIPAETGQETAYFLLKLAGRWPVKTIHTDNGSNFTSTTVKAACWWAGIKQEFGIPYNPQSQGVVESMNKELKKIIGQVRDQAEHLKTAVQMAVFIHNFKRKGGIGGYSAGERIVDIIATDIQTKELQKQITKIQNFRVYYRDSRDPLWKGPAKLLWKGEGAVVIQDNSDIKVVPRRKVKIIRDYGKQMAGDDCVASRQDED
Reported metric: IC50

C=c1[nH]n(C(=O)c2ccccc2O)c(=O)c1=Cc1ccc(O)cc1; 0.6 µM
C=c1[nH]n(C(=O)c2ccc(Cl)cc2)c(=O)c1=Cc1cc(OC)c(OC)c(OC)c1; > 240 µM
C=c1[nH]n(C(=O)c2ccc(Cl)cc2)c(=O)c1=Cc1ccc(Cl)cc1; > 280 µM
C=c1[nH]n(C(=O)c2ccccc2O)c(=O)c1=Cc1ccc(O)c(OC)c1; 0.8 µM
C=c1[nH]n(C(=O)c2ccc(Cl)cc2)c(=O)c1=Cc1ccc(OC)c(OC)c1; > 260 µM
C=c1[nH]n(C(=O)c2ccc(Cl)cc2)c(=O)c1=Cc1cccc(O)c1; > 293 µM
C=c1[nH]n(C(=O)c2ccc(Cl)cc2)c(=O)c1=Cc1ccccc1O; > 293 µM
C=c1[nH]n(C(=O)c2ccc(Cl)cc2)c(=O)c1=Cc1ccc(O)cc1; > 293 µM
C=c1[nH]n(C(=O)c2ccccc2O)c(=O)c1=Cc1ccc(OC)cc1; 0.9 µM

Taken from BindingDB's records for doi:10.1021/jm9801760.
